Examples of compounds with documented EC50 follow.
- subject_of_test: KIT T670I (Homo sapiens, UniProt P10721, T670I)
- Sequence (P10721 26-976 T670I): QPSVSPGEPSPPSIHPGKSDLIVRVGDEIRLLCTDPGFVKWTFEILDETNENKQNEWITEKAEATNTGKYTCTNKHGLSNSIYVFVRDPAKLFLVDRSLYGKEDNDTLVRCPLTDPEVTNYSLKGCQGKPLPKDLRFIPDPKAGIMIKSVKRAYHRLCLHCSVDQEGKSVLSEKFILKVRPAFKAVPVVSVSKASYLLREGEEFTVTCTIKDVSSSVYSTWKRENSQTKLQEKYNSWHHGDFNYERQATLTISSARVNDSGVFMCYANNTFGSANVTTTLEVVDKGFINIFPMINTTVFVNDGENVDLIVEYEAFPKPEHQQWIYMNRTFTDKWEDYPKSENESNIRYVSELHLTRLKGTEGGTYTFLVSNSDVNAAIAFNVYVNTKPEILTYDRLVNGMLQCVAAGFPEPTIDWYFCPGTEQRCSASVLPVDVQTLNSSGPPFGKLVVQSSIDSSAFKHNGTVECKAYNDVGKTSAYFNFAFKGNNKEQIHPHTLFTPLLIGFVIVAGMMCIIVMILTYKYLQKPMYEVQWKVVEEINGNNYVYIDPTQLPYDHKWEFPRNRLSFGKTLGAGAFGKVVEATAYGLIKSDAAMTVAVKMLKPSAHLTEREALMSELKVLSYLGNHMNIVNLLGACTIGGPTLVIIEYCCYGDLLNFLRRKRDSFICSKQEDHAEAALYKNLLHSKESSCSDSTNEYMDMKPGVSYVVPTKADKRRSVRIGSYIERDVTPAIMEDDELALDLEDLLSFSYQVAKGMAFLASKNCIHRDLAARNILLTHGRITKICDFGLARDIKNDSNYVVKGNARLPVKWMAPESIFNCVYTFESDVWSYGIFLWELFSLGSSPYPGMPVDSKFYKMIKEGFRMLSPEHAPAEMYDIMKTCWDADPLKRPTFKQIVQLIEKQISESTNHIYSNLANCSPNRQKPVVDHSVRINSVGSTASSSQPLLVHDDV
- protocol_notes: SelectScreen kinase specificity survey
- study_conditions: estimated, abridged dose response curve, read-out: Kinase inhibitory activity EC50

The reported value for CN(C)CCCNc1ccc2ncn3c4ccc5[nH]ncc5c4c(=O)c1c23 [Compound (IV)] in terms of EC50 is > 5 µM

Moving on to the next compound.
Consider CCN(CC)CCNc1ccc2ncn3c4ccc(O)cc4c(=O)c1c23 [Symadex, reference compound] . Its measured EC50 is > 5 µM

---

As shown below, each of these compounds has a reported EC50 value.
- subject_of_test: EGFR (ErbB1) L858R (Homo sapiens, UniProt P00533, L858R)
- protocol_notes: SelectScreen kinase specificity survey
- study_conditions: estimated, abridged dose response curve, read-out: Kinase inhibitory activity EC50

Sure, the documented EC50 for `CN(C)CCCNc1ccc2ncn3c4ccc5[nH]ncc5c4c(=O)c1c23` is > 5 µM

Continuing:
// CCN(CC)CCNc1ccc2ncn3c4ccc(O)cc4c(=O)c1c23 [Symadex, reference compound] : EC50 value = > 5 µM

---

Here the recorded pEC50 is given for each entry.
- subject_of_test: LYN A (Homo sapiens)
- Sequence (P07948 whole entry): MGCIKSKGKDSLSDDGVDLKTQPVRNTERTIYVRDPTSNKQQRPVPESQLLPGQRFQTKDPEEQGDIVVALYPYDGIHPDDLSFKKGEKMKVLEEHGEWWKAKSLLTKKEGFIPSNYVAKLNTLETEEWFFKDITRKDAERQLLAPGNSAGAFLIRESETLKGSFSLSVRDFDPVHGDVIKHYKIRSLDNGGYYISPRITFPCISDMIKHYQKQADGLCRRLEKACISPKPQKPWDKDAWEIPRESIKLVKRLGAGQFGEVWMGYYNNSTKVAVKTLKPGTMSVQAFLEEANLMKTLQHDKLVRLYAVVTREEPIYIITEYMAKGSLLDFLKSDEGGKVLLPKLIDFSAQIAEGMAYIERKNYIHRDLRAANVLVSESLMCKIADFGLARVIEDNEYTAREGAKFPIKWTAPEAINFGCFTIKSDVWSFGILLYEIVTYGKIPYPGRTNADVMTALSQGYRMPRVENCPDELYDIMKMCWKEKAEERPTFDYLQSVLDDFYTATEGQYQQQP
- protocol_notes: SelectScreen kinase specificity survey
- study_conditions: estimated, abridged dose response curve, read-out: Kinase inhibitory activity EC50
Field pEC50 (float): negative decimal logarithm of the concentration in molar.

Recorded pEC50 (compound CN(C)CCCNc1ccc2ncn3c4ccc5[nH]ncc5c4c(=O)c1c23 [Compound (IV)] ): 6.41

Proceeding to the next compound to report its pEC50.
Just so you know, measured pEC50 for CCN(CC)CCNc1ccc2ncn3c4ccc(O)cc4c(=O)c1c23 [Symadex, reference compound] came out at 6.10

---

- subject_of_test: PDGFRB (PDGFR beta) (Homo sapiens)
- Construct: purchased Invitrogen (SelectScreen platform)
- protocol_notes: SelectScreen kinase specificity survey
- Format: biochemical
- study_conditions: estimated, abridged dose response curve, read-out: Kinase inhibitory activity EC50
Recorded measurements of pEC50, one per entry
By convention, pEC50 is the negative base-10 log of a molar concentration.

pEC50 reading for CCN(CC)CCNc1ccc2ncn3c4ccc(O)cc4c(=O)c1c23 [Symadex, reference compound] : 5.75

Consider the record given below.
For reference, reported pEC50 for `CN(C)CCCNc1ccc2ncn3c4ccc5[nH]ncc5c4c(=O)c1c23` stands at 6.56

---

- subject_of_test: UniProt:O75914
- Sequence (O75914 whole entry): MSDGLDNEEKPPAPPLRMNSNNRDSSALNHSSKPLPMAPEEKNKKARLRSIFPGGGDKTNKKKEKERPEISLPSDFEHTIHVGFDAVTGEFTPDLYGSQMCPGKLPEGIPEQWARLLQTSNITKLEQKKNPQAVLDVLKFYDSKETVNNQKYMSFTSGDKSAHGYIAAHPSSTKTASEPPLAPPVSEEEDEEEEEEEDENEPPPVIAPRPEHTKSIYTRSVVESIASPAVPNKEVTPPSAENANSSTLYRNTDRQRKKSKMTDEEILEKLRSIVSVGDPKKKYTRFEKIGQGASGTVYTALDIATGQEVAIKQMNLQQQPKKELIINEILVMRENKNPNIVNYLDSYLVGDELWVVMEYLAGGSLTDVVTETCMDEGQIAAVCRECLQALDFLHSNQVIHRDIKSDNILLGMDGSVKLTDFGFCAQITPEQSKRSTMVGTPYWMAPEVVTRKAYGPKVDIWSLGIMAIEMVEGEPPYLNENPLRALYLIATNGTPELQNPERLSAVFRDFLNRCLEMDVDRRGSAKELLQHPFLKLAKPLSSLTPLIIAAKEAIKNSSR
- protocol_notes: SelectScreen kinase specificity survey
- study_conditions: estimated, abridged dose response curve, read-out: Kinase inhibitory activity EC50
- Experimental: Testing of the compounds described in this invention was carried out using the SelectScreen™ platform from Invitrogen, Inc. (Carlsbad. Calif., USA) and the details of its performance are readily viewed via the web by linking to: http://www.invitrogen.com/downloads/SelectScrn_Brochure.pdf. Briefly, the approach is based on treating each specific kinase with a unique substrate and optical reporter system in the presence of ATP at 100 micromolar. […]
Overview of recorded EC50 for various molecules

Given item `CN(C)CCCNc1ccc2ncn3c4ccc5[nH]ncc5c4c(=O)c1c23` , the value recorded as its EC50 is > 5 µM

Please examine the following record next.
Record summary for CCN(CC)CCNc1ccc2ncn3c4ccc(O)cc4c(=O)c1c23 [Symadex, reference compound] : reported EC50 = > 5 µM

---

- subject_of_test: MAPK10 (JNK3) (Homo sapiens, UniProt P53779)
- protocol_notes: SelectScreen kinase specificity survey
- study_conditions: estimated, abridged dose response curve, read-out: Kinase inhibitory activity EC50
endpoint_name: pEC50
Reminder that pEC50 is minus the log10 of a molar concentration.

Measured pEC50 of `CN(C)CCCNc1ccc2ncn3c4ccc5[nH]ncc5c4c(=O)c1c23` : 5.55

---

- subject_of_test: UniProt P16591
- protocol_notes: SelectScreen kinase specificity survey
- study_conditions: estimated, abridged dose response curve, read-out: Kinase inhibitory activity EC50
- Procedure: Testing of the compounds described in this invention was carried out using the SelectScreen™ platform from Invitrogen, Inc. (Carlsbad. Calif., USA) and the details of its performance are readily viewed via the web by linking to: http://www.invitrogen.com/downloads/SelectScrn_Brochure.pdf. Briefly, the approach is based on treating each specific kinase with a unique substrate and optical reporter system in the presence of ATP at 100 micromolar. […]
endpoint_name: EC50

The value of EC50 measured for the molecule `CN(C)CCCNc1ccc2ncn3c4ccc5[nH]ncc5c4c(=O)c1c23` turned out to be > 5 µM

Others:
Documented EC50 of CCN(CC)CCNc1ccc2ncn3c4ccc(O)cc4c(=O)c1c23 [Symadex, reference compound] : > 5 µM

---

- subject_of_test: EGFR (ErbB1) L861Q (Homo sapiens, UniProt P00533, L861Q)
- Sequence (P00533 25-1210 L861Q): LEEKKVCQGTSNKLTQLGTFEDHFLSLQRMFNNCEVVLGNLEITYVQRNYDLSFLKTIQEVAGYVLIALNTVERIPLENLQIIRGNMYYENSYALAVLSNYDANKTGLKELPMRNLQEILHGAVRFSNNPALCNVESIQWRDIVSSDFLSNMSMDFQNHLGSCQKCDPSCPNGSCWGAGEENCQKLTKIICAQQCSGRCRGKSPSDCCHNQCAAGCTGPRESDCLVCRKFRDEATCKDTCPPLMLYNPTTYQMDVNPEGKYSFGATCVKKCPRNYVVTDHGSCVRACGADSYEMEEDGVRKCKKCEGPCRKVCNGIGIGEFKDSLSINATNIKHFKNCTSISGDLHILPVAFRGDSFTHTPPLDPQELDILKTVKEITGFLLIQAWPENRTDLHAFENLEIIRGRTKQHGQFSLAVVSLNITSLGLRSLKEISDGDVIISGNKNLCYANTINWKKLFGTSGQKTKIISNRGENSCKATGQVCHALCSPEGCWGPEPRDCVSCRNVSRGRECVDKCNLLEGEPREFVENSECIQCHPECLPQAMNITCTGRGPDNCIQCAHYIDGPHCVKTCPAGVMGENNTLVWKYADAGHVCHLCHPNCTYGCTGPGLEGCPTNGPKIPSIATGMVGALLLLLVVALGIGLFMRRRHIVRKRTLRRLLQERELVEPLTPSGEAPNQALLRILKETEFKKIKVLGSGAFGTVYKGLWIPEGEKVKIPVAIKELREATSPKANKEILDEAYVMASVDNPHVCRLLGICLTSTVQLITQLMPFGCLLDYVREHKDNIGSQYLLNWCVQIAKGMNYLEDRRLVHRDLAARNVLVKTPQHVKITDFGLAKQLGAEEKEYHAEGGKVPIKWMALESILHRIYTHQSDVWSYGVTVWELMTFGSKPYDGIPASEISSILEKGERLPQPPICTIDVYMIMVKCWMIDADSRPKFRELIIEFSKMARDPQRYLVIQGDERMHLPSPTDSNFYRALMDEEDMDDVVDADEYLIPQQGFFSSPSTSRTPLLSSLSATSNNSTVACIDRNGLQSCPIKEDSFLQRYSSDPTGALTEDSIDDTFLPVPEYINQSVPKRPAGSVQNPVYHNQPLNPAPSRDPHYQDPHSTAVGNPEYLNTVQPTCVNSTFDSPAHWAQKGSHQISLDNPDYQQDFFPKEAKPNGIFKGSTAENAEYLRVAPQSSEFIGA
- protocol_notes: SelectScreen kinase specificity survey
- study_conditions: estimated, abridged dose response curve, read-out: Kinase inhibitory activity EC50
endpoint_name: EC50

Lab book: EC50 of CCN(CC)CCNc1ccc2ncn3c4ccc(O)cc4c(=O)c1c23 [Symadex, reference compound] noted as > 5 µM

Now for the compound whose EC50 we want.
Value of measured EC50 for the entry `CN(C)CCCNc1ccc2ncn3c4ccc5[nH]ncc5c4c(=O)c1c23` : > 5 µM

---

- subject_of_test: UniProt:P24723
- Sequence (P24723 whole entry): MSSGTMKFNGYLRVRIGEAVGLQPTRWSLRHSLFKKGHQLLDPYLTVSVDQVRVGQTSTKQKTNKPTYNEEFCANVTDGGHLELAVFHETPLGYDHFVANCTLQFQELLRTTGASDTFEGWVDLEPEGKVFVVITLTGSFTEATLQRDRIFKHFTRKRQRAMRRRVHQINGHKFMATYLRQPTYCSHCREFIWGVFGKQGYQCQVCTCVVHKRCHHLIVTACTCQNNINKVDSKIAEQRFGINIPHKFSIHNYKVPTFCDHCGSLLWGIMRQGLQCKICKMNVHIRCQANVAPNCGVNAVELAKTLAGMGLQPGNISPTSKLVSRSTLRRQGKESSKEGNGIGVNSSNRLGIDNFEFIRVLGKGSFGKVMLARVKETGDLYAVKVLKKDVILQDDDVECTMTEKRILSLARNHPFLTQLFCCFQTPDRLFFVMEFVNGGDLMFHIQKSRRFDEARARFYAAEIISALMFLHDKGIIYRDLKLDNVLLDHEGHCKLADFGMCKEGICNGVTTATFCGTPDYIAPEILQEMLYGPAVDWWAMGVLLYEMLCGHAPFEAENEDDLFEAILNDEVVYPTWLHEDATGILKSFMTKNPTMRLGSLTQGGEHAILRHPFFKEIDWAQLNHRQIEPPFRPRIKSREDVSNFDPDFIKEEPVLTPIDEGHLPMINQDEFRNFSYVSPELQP
- protocol_notes: SelectScreen kinase specificity survey
- study_conditions: estimated, abridged dose response curve, read-out: Kinase inhibitory activity EC50
endpoint_name: pEC50
Bear in mind: pEC50 is minus log10 of a mol/L concentration; give just that figure.

The compound identified as `CN(C)CCCNc1ccc2ncn3c4ccc5[nH]ncc5c4c(=O)c1c23` registered its pEC50 at 5.67

---

Let's look at some compounds and their measured EC50.
- subject_of_test: EPHA2 (Homo sapiens, UniProt P29317)
- Sequence (P29317 24-976): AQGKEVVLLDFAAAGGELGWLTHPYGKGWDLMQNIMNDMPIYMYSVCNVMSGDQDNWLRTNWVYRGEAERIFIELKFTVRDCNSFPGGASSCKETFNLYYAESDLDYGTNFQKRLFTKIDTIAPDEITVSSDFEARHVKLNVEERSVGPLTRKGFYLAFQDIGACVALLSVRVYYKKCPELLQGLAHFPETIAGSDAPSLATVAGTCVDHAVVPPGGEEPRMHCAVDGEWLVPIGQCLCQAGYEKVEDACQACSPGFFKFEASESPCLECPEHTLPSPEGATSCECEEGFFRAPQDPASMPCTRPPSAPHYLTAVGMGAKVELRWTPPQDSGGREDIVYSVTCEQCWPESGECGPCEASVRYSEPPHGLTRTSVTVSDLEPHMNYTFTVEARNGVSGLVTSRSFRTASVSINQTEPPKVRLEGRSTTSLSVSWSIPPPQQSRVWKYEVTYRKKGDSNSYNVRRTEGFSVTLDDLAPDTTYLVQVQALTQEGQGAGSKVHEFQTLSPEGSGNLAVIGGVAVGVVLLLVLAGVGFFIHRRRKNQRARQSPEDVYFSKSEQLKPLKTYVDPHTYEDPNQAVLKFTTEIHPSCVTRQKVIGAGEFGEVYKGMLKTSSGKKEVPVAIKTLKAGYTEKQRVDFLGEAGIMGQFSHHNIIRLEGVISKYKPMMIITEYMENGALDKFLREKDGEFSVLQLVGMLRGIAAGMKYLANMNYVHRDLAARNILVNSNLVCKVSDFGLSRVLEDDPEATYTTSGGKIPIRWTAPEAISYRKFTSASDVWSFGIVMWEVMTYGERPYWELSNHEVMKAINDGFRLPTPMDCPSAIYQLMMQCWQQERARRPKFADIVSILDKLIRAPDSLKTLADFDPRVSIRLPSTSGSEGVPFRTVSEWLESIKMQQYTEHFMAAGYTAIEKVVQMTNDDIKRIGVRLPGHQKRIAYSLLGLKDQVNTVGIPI
- protocol_notes: SelectScreen kinase specificity survey
- study_conditions: estimated, abridged dose response curve, read-out: Kinase inhibitory activity EC50

Reported EC50 ( CCN(CC)CCNc1ccc2ncn3c4ccc(O)cc4c(=O)c1c23 [Symadex, reference compound] ) = > 5 µM

With those in mind, consider the next compound.
Kindly note the recorded EC50 for `CN(C)CCCNc1ccc2ncn3c4ccc5[nH]ncc5c4c(=O)c1c23` , which is > 5 µM

---

- subject_of_test: GSK3A (GSK3 alpha) (Homo sapiens, UniProt P49840)
- protocol_notes: SelectScreen kinase specificity survey
- study_conditions: estimated, abridged dose response curve, read-out: Kinase inhibitory activity EC50
endpoint_name: EC50 (µM)
Reply numerically in µM, unit not repeated.

The reported EC50 of the molecule CN(C)CCCNc1ccc2ncn3c4ccc5[nH]ncc5c4c(=O)c1c23 [Compound (IV)] was 3.62

---

- subject_of_test: FLT4 (VEGFR3) (Homo sapiens)
- protocol_notes: SelectScreen kinase specificity survey
- study_conditions: estimated, abridged dose response curve, read-out: Kinase inhibitory activity EC50
endpoint_name: EC50 (nM)
Lab book: enter the figure in nM, no units written.

The reported EC50 of the molecule CCN(CC)CCNc1ccc2ncn3c4ccc(O)cc4c(=O)c1c23 [Symadex, reference compound] was 3960

Consider the additional molecule presented here.
Entry CN(C)CCCNc1ccc2ncn3c4ccc5[nH]ncc5c4c(=O)c1c23 [Compound (IV)] ; EC50 = 1490

---

- subject_of_test: BRSK1 (SAD1) (Homo sapiens)
- Construct: purchased Invitrogen, Inc. (SelectScreen platform)
- Sequence (Q8TDC3 1-778): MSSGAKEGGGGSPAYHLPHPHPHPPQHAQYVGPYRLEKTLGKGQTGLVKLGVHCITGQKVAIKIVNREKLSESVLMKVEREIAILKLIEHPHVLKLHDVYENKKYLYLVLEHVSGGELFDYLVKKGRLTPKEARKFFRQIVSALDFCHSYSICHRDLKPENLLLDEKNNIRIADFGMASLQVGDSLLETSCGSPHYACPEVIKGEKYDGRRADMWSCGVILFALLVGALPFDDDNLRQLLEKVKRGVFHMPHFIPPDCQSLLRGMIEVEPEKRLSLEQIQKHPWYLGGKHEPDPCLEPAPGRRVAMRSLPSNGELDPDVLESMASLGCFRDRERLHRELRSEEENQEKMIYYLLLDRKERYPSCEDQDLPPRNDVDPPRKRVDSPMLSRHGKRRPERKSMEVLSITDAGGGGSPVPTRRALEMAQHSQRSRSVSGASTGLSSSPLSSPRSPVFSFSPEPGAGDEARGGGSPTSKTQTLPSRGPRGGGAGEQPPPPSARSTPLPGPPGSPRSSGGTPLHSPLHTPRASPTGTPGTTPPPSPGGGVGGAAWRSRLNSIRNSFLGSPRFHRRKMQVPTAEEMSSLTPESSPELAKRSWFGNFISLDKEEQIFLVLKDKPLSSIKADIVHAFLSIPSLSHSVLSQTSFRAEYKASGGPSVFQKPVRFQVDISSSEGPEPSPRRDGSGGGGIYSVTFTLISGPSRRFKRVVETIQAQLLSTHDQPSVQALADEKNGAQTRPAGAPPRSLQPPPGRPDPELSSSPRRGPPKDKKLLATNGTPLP
- protocol_notes: SelectScreen kinase specificity survey
- Format: biochemical
endpoint_name: EC50
Kindly report the value followed by its unit.

response.value for CCN(CC)CCNc1ccc2ncn3c4ccc(O)cc4c(=O)c1c23 [Symadex, reference compound] (field: EC50) = 1930 nM
